- Tested on: MDA-MB-435 melanoma
- Protocol Summary: NCI-60 one-dose screen, 48 h
- Test Parameters: 10 µM unless noted
The panel holds about 83,000 compounds, 20% with a hit somewhere; the sample as a whole holds those more often. The source made the active and inactive calls. The calls were made as follows: active = growth percent below 10; inactive = the rest.
Tick one outcome: active, inactive

Answer briefly: the call reported for O=C(c1nc2ccccc2[nH]1)C1C(c2ccc([N+](=O)[O-])cc2)C2CC3CCCCC3N2[C@@]12C(=O)Nc1cc(Cl)ccc12 (stereo partly specified) in this assay. inactive

// param item: CN1C(=O)N(C)C2(c3ccccc3)OC(=S)NC12c1ccccc1 (stereo unspecified) ; yields the recorded call inactive

// outcome(item) with item = "O=C(/C=C/c1ccc(Cl)cc1)c1ccc(Nc2nc(NCCO)nc(N3CCOCC3)n2)cc1" inactive

Which outcome was assigned to "O=c1oc2ccc(Br)cc2c(=O)n1-c1ccc(I)cc1F" in this test? active

Which outcome was assigned to "Cn1c(/C=C(\C#N)c2cccc(C(F)(F)F)c2)nc2c(N3CCOCC3)nc(Cl)nc21" in this test? active

For "CN(C)/C=C1\SC(=Nc2ccc(Cl)cc2)NC1=O" , what call appears in the results of this test? inactive

Per the records of this test, what outcome belongs to "N#CC(C#N)=Cc1c(-c2ccccc2)[nH]c2ccccc12" ? active

# outcome recorded in this test, key = "CCN(CC)CCNC(=O)C(Cl)=C1C(Cl)=C(Cl)C(Cl)=C1Cl" inactive

Could you please tell me the result logged for "O=C1c2ccccc2C(=O)c2c1ccc1[nH]c(CCl)nc21" in this assay? inactive

Which outcome was entered for the molecule "CC(=O)c1ccc(NC(=O)Nc2ccc(S(=O)(=O)Nc3ccc(Cl)nn3)cc2)cc1" in this test? inactive

So what was the verdict on "S=C1CCCC(=S)N1" in this test? inactive

Outcome? "Cc1nc2ccccc2c(/C=C/c2ccccc2)c1C(=O)/C=C/c1ccc(Cl)cc1" active

Test call, this molecule: "O=C(CCc1nnc2sc(-c3ccc(Cl)cc3Cl)nn12)c1nc2ncccc2[nH]1" active

How did this test come out for "COc1ccc(-c2c(-c3ccc(OC)c(O)c3)cnc3ncnn23)cc1" ? inactive

Kindly provide the recorded test outcome for the following molecule: "Cc1ccc(Nc2nc(N)c3ccccc3n2)cc1Cl" inactive

Test call for this molecule, please: "COc1ccc(-c2nc(-c3ccccc3)c(-c3ccccc3)[nH]2)cc1OC1CCCCC1" inactive

Can you look up the reported call for "C1CCN(c2nc(N3CCCCC3)nc(N3CCOCC3)n2)CC1" for me? inactive

// outcome(item) with item = "CCOC(=O)c1cc2c(n1Cc1cc(OC)cc(OC)c1)-c1oncc1CCC2" active

Each molecule tested received a call. Report the one for "COc1ccc2[nH]c(O)c(N=NC(=O)c3oc4ccccc4c3C)c2c1" . inactive

Tell me the recorded outcome of this test for "C[C@@H](C(=O)NCCCC#Cc1cnc(Nc2ccc(C#N)cc2)nc1NC1CC1)N(C)C(=O)/C=C/CN(C)C" . inactive

Hey, what did the test say about "O=C(Nc1ccc(Cl)cc1)c1cc2ccccc2cc1OP(=O)(O)O" ? inactive

Record request — test call for "COc1ccc(Cn2c(Br)c3c(c2-c2cc(OC)c(OC)c(OC)c2)CCc2sc(NC(C)=O)nc2-3)cc1" active

Answer briefly: the call reported for "COc1ccc(/C=C/C(=O)c2c(C)nc3ccccc3c2/C=C/c2ccccc2)c(OC)c1" in this assay. inactive

How was "Cc1ccc(NC2=CC(=O)C(=O)c3ccccc32)c(C)c1" classified in this test? active

For "Cn1c(=O)n(C)c2cc(CNCCNc3ccnc4cc(Cl)ccc34)ccc21" , what call appears in the results of this test? inactive

Just curious, what result did "O=C(N/N=C/c1ccccc1O)C(=O)Nc1ccc(F)cc1" get here? inactive

// return assay outcome for "Clc1ccc(COc2ccc(Nc3ncnc4onc(-c5ccccc5)c34)cc2)cc1" inactive

Could you kindly confirm the outcome this assay logged for "Nc1nc2c(ncn2[C@@H]2O[C@H](CS)[C@@H](O)[C@H]2O)c(=O)[nH]1" ? inactive

Identify the outcome logged in this assay for the molecule shown: "CN(CCc1ccccc1)C(=S)N(C(=O)c1ccc([N+](=O)[O-])cc1)c1ccc(Cl)cc1" inactive

Give the logged outcome of this assay for the following molecule: "CN(O)c1nc(N(C)O)nc(N2CCOCC2)n1" inactive

Which outcome was assigned to "COc1cc2cc3c(=O)n4c(cc5cc(OC)ncc54)c(=O)n3c2cn1" in this test? inactive

Short answer needed: outcome of this test for "CCn1c(Cc2ccccc2Nc2c(Cl)cccc2Cl)nnc1SCC(=O)NN1C(=O)/C(=C/c2cccc(OC)c2OC)SC1=S" ? inactive

Recorded test call requested for "COC(=O)c1ccc(NC(=O)CSc2nc3ccccc3c(=O)n2-c2ccccc2)cc1" inactive

Answer briefly: the call reported for "CC1=C(CC(=O)c2cccc([N+](=O)[O-])c2)C(=O)c2ccccc2C1=O" in this assay. active

Recorded test call requested for "Clc1ccc(Nc2scc3[n+]2CCC3)cc1" inactive

Test call, this molecule: "C#CCn1cc(C=C2C(=O)N(C)C(=O)N(C)C2=O)c2cc(Cl)ccc21" inactive

Would you mind telling me which call this test gave CCOC(=O)C1=C(C)N=c2s/c(=C\c3cc(Cl)ccc3O)c(=O)n2C1c1ccc(OC)cc1 (stereo unspecified) ? inactive

Lab log entry: "Cc1ccc(N=NC2C(=O)N(c3ccc(Cl)cc3)N(c3ccc(Cl)cc3)C2=O)cc1" — outcome as called in the assay? inactive

What did this assay record as the result for "c1ccc(-c2ccc(-c3nc4ccccc4[nH]3)cc2)cc1" ? inactive

Which outcome was assigned to "CC(=O)Nc1nc2c(s1)CCc1c-2cn(S(=O)(=O)c2ccccc2)c1-c1ccccc1" in this test? inactive

Could you please tell me the result logged for "Cc1c(-c2csc(-n3nc(C(F)(F)F)cc3C(F)(F)F)n2)no[n+]1[O-]" in this assay? inactive

----------
I'd be grateful if you could share measured growth for these entries.
- System: MALME-3M melanoma
- Protocol Summary: NCI-60 one-dose screen, 48 h (100 = growth as untreated, 0 = no growth, -100 = all killed)
- Test Parameters: 10 µM unless noted
The panel holds about 83,000 compounds, 20% with a hit somewhere; the sample as a whole holds those more often.
Report the value in % with no unit label.

Identify the measured growth of COC(=O)C1=C(C)NC(C)=C(C(=O)OC)C(N2C(=O)CCC2=O)C1 (stereo unspecified) for MALME-3M melanoma. 80.8

// lookup growth | system=MALME-3M melanoma | key= "COc1ccc2sc(N(Cc3cccnc3)C(=O)c3ccc(C#N)cc3)nc2c1" 60.9

# value lookup — system MALME-3M melanoma, readout growth, item "O=c1c2cc(F)ccc2sc2c(NCCN3CCCC3)nc3ccccc3c12" 83

I'm curious: which growth was measured for "COC(=O)/C(CCC=C(C)C)=C1\[C@@H](OC(C)=O)C[C@@]2(C)[C@H]1C[C@@H](O)[C@H]1[C@@]3(C)CC[C@H](NCc4ccccc4)[C@@H](C)[C@@H]3CC[C@@]12C" tested on MALME-3M melanoma? 68

Identify the measured growth of "Nc1ccccc1-c1ccc(-c2ccc(Cl)cc2)c2c1[nH]c1ccccc12" for MALME-3M melanoma. 90.2

// map CC1=NCC2NC(=O)NC(C)=C12 (stereo unspecified) to recorded growth (system: MALME-3M melanoma) 96

Please provide the recorded growth for "COc1ccc(/C=C2/SC(=O)N(CC(=O)N3CCN(c4cc5c(cc4F)c(=O)c(C(=O)O)cn5C4CC4)CC3)C2=O)cc1" , tested on MALME-3M melanoma. 98.5

Report growth for "NCCNc1nc2ccccc2c2c(=O)c3cc(F)cc(Cl)c3sc12" tested on MALME-3M melanoma. 89.6

Write down the reported growth of "COc1ccc(/C=C/C(=O)c2ccc3cc(OC)c(OC)cc3c2)cc1OC" , test system: MALME-3M melanoma. 90.6

Item: "Cc1cccc2c(=O)c3c(sc12)c(NCCN)nc1ccccc13" Test system: MALME-3M melanoma Read-out: growth Value: ? -74.2

Query growth on MALME-3M melanoma for "O=C(O)c1cn(C2CC2)c2cc(N3CCN(C(=O)C[n+]4ccccc4)CC3)c(F)cc2c1=O" 99.5

Find growth (MALME-3M melanoma) for the entry COc1cc(/C=C/C(=O)N2c3ccccc3CC2C)c(OC)c2c1OCO2 (stereo unspecified) 101

// fetch MALME-3M melanoma growth for "NS(=O)(=O)c1ccc(CCN=C=S)cc1" 40.9

What measured growth is associated with "COc1cc(/C=C2\CN(C)C/C(=C\c3cc(CN4CCCC4)c(O)c(OC)c3)C2=O)cc(CN2CCCC2)c1O" on MALME-3M melanoma? 86

Write down the reported growth of "CCCCCCc1cc2cc(-c3csc(/C=C/c4ccccc4)n3)c(=O)oc2cc1O" , test system: MALME-3M melanoma. -79.9

Missing value: growth, MALME-3M melanoma, entry "COc1ccc(-c2nocc2-c2cccs2)cc1" . Fill in? 106

For MALME-3M melanoma, provide growth of "O=C(/C=C/c1ccccc1)c1ccc(Nc2nc(NCCO)nc(Nc3ccc(Cl)cc3)n2)cc1" please. 98.7

Notebook entry, MALME-3M melanoma assay: growth of "CN1CCN(Cc2ccc(NC(=O)c3cncc(C#Cc4nc(N)nc5[nH]ncc45)c3)cc2C(F)(F)F)CC1" = ? 68.6

Report growth for "COC(=O)/C(CCC=C(C)C)=C1\[C@@H](OC(C)=O)C[C@@]2(C)[C@H]1CC(=O)N[C@H]1[C@@]3(C)CCNC(=O)[C@@H](C)[C@@H]3CC[C@@]12C" tested on MALME-3M melanoma. 101

Short answer please: growth, MALME-3M melanoma, entry COc1cccc(C(=O)NC(c2ccc(C)cc2)c2cc(Cl)c3cccnc3c2O)c1 (stereo unspecified) -1.84

Give recorded growth with MALME-3M melanoma for the following compound: "O=C(Nc1ccc(F)cc1F)c1cc(I)ccc1O" -17.6
